assay.target: T1, human CD39 protein (recombinant) (human, UniProt P49961 38-478, limits assumed)
T1 construct: Soluble recombinant protein coated on ELISA plates and used in the protein-based ATPase assay; also called recombinant CD39 protein; recombinant purified human CD39 protein
T1 sequence: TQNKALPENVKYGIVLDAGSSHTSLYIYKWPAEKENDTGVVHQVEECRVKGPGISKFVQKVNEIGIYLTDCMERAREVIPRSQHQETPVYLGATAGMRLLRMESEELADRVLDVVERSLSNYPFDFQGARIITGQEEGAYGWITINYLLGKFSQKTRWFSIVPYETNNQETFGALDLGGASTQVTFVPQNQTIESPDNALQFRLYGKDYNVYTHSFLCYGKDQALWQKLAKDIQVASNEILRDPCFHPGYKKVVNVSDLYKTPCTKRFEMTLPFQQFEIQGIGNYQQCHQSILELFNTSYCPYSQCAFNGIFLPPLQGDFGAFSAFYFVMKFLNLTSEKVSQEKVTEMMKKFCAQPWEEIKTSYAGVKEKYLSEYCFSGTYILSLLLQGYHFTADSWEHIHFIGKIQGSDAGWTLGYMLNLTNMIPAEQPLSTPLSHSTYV
method.notes: ELISA on coated human CD39 protein
result.type: EC50 (µg/mL)
Number only, in µg/mL; omit the unit.

The examples below pair each entry with its known result.
>>> observed("HuEM0004-38-15 (antibody, human IgG1, kappa, L234A L235A, V domains shown, humanized mAb638, human IgG1/kappa) VH: EVQLVQSGAEVKKPGASVKVSCKASGYTFTSFWMHWVRQAPGQGLEWIGNINPRNGATKYNEKFRSKVTLTADKSISTAYMELSRLRSDDTAVYYCAREDYDEIYYAMDSWGQGTTVTVSS VL: ENVLTQSPATLSLSPGERATLSCSASSSVIYMYWFQQKPGQSPRVLIYDTSNLASGIPARFSGSGSGTDYTLTISSLEPEDFAVYYCQQWSTYPLTFGQGTKLEIKR")
0.031
>>> observed("HuEM0004-38-8 (antibody, human IgG1, kappa, L234A L235A, V domains shown, humanized mAb638, human IgG1/kappa) VH: EVQLVQSGAEVKKPGASVKVSCKASGYTFTSFWMHWVRQAPGQGLEWMGNINPRNGATKYNEKFRSRVTLTADKSISTAYMELSRLRSDDTAVYYCAREDYDEIYYAMDSWGQGTTVTVSS VL: ENVLTQSPATLSLSPGERATLSCSASSSVIYMYWFQQKPGQAPRLLIYDTSNLASGIPARFSGSGSGTDYTLTISSLEPEDFAVYYCQQWSTYPLTFGQGTKLEIKR")
0.097
>>> observed("HuEM0004-38-14 (antibody, human IgG1, kappa, L234A L235A, V domains shown, humanized mAb638, human IgG1/kappa) VH: EVQLVQSGAEVKKPGASVKVSCKASGYTFTSFWMHWVRQAPGQGLEWIGNINPRNGATKYNEKFRSRVTLTADKSISTAYMELSRLRSDDTAVYYCAREDYDEIYYAMDSWGQGTTVTVSS VL: ENVLTQSPATLSLSPGERATLSCSASSSVIYMYWFQQKPGQSPRVLIYDTSNLASGIPARFSGSGSGTDYTLTISSLEPEDFAVYYCQQWSTYPLTFGQGTKLEIKR")
0.021
>>> observed("HuEM0004-38-7 (antibody, human IgG1, kappa, L234A L235A, V domains shown, humanized mAb638, human IgG1/kappa) VH: EVQLVQSGAEVKKPGASVKVSCKASGYTFTSFWMHWVRQAPGQGLEWMGNINPRNGATKYNEKFRSRVTMTADKSISTAYMELSRLRSDDTAVYYCAREDYDEIYYAMDSWGQGTTVTVSS VL: ENVLTQSPATLSLSPGERATLSCSASSSVIYMYWFQQKPGQAPRLLIYDTSNLASGIPARFSGSGSGTDYTLTISSLEPEDFAVYYCQQWSTYPLTFGQGTKLEIKR")
0.149

Please examine the following record next.
Param item = HuEM0004-38-10 (antibody, human IgG1, kappa, L234A L235A, V domains shown, humanized mAb638, human IgG1/kappa) VH: EVQLVQSGAEVKKPGASVKVSCKASGYTFTSFWMHWVRQAPGQGLEWIGNINPRNGATKYNEKFRSKVTLTADKSISTAYMELSRLRSDDTAVYYCAREDYDEIYYAMDSWGQGTTVTVSS VL: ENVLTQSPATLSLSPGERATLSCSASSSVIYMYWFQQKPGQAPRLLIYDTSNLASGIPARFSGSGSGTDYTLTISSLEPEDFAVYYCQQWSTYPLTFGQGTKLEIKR ; retrieve measured EC50.
0.175

Every entry's value here was drawn from patent US20220389111A1.
